# Test system: AMPK-alpha1;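 note: KINOMEscan kinase panel screen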
# Construct: gene PRKAA1
# setup-conditions: concentration: 1 μM, replicates: in singlicate; n = 1
parameter-measured: %Inh
Express your answer as a number followed by its unit.

1. O=C(Nc1n[nH]c2nc(-c3cccs3)c(Br)cc12)C1CCCC1 | 29%
2. Cc1ccc(NC(=O)c2ccc(Cl)cc2)cc1-c1ccc(C(=O)Nc2ccncc2)cc1 | 0%
3. CC(C)c1ccc(O)cc1Nc1ccnc2ccc(C(F)(F)F)cc12 | 20%
4. Cn1cnc2c(N)ncnc21 | 5%
5. COc1cccc(C2=C(Nc3cc(Cl)c(O)c(Cl)c3)C(=O)NC2=O)c1 | 8%
6. COC(=O)C(Cc1ccccc1)NC(=O)NC1CCN(c2ccnc(Nc3ccc(F)cc3)n2)C1 (stereo not shown) | 7%

QUERY: Returns the measured %Inh for the input molecule. Input: `O=C1NC(=O)C(c2ccc(Cl)cc2)=C1Nc1ccc(O)cc1`
RESULT: 0%
